test system: corn; assay: Test C preemergence; type: in vivo, Zea mays; conditions: Preemergence, 250 g ai/ha
measurementLabel: Plant response rating (scale of 0 to 100), Corn
// return just the number, without any unit appended

Below: 3 molecules and their reported Plant response rating (scale of 0 to 100), Corn.
CCc1cc(C(=O)NCC(F)(F)F)nn1Cc1nc(C(F)(F)F)nn1C [Compound 107]: 95
CCc1cc(C(=O)NOC(C)C)nn1Cc1ccnc(OC(F)F)c1 [Compound 126]: 98
CCCc1cc(C(=O)NCC(F)(F)F)nn1Cc1ccnc(OC(F)F)c1 [Compound 127]: 45

Continue with the next molecule.
Q. Quick one: give measured Plant response rating (scale of 0 to 100), Corn for CCONC(=O)c1cc(CC)n(Cc2cccc(OC(F)(F)F)c2)n1 [Compound 72]
A. 75

----------
test system: morningglory; test: Test A postemergence; type: in vivo, Ipomoea spp.; conditions: postemergence, 125 g ai/ha, about 10 days, visual rating on 0 to 100 scale (0 no effect, 100 complete control)
Excerpt: […]
// NB: equality with 70 counts as Not satisfied; only Morningglory plant response rating strictly below is Satisfied

O=C(NCC(F)(F)F)c1cc(CCF)n(Cc2ccnc(C(F)(F)F)c2)n1: Not satisfied

For the next question, use this compound.
Q. Would you kindly verify if Morningglory plant response rating of CCc1cc(C(=O)NCC(F)(F)F)nn1Cc1cc(C(F)(F)F)nn1C is strictly less than 70?
A. Not satisfied

----------
system: oilseed rape; experiment: Test C preemergence; type: in vivo, Brassica napus; conditions: preemergence, 62 g ai/ha; scale 0 to 100 (0 no effect, 100 complete control), 13 to 15 days
Let's look at some compounds and their measured Oilseed Rape plant response rating.

Below: 3 compounds and their reported Oilseed Rape plant response rating.
CCCc1cc(C(=O)NCC(F)(F)F)nn1Cc1ccnc(OC(F)F)c1: 100
O=C(NC1CC1)c1cc(CCF)n(Cc2ccnc(C(F)(F)F)c2)n1: 90
CCCc1cc(C(=O)NC2CC2)nn1Cc1cc(C(F)(F)F)nn1C: 100

Q. Quick one: give measured Oilseed Rape plant response rating for CCCc1cc(C(=O)NC(C)C)nn1Cc1ccnc(C(F)(F)F)c1
A. 100

Q. Quick one: give measured Oilseed Rape plant response rating for CCCc1cc(C(=O)NC2CC2)nn1Cc1ccnc(OC(F)F)c1
A. 100

Q. Quick one: give measured Oilseed Rape plant response rating for CCc1cc(C(=O)NCC(F)(F)F)nn1Cc1ccnc(SC(F)(F)F)c1
A. 95

Q. Quick one: give measured Oilseed Rape plant response rating for CCCc1cc(C(=O)NC(C)C)nn1Cc1cc(C(F)(F)F)nn1C
A. 100

Q. Quick one: give measured Oilseed Rape plant response rating for CCCNC(=O)c1cc(OCC)n(Cc2ccnc(OC(F)F)c2)n1
A. 100

----------
tested on: velvetleaf; assay: Test C postemergence; assay type: in vivo, Abutilon theophrasti; conditions: postemergence, 250 g ai/ha; scale 0 to 100 (0 no effect, 100 complete control)
Let's look at some compounds and their measured Plant response rating, Velvetleaf.
// return just the number, without any unit appended

Below: 5 compounds and their reported Plant response rating, Velvetleaf.
CCc1cc(C(=O)NC2CC2)nn1Cc1ccnc(C(F)(F)F)c1: 80
CCc1cc(C(=O)NCC(F)(F)F)nn1Cc1cc(C(F)(F)F)nn1C: 40
CCCNC(=O)c1cc(CC)n(Cc2nc(C(F)(F)F)nn2C)n1: 35
CCCNC(=O)c1cc(OCC)n(Cc2ccnc(OC(F)F)c2)n1: 85
CCCNC(=O)c1cc(OCC)n(Cc2ccnc(C(F)(F)F)c2)n1: 65

Q. Quick one: give measured Plant response rating, Velvetleaf for CCONC(=O)c1cc(CC)n(Cc2cccc(OC(F)(F)F)c2)n1
A. 55

Q. Quick one: give measured Plant response rating, Velvetleaf for CCCc1cc(C(=O)NC(C)C)nn1Cc1ccnc(C(F)(F)F)c1
A. 80

Q. Quick one: give measured Plant response rating, Velvetleaf for CCCc1cc(C(=O)NC(C)C)nn1Cc1cc(C(F)(F)F)nn1C
A. 80

Q. Quick one: give measured Plant response rating, Velvetleaf for CCCc1cc(C(=O)NCC(F)(F)F)nn1Cc1ccnc(OC(F)F)c1
A. 70

Q. Quick one: give measured Plant response rating, Velvetleaf for CCOc1cc(C(=O)NOC(C)C)nn1Cc1ccnc(C(F)(F)F)c1
A. 65

Q. Quick one: give measured Plant response rating, Velvetleaf for CCCNC(=O)c1cc(CCF)n(Cc2ccnc(C(F)(F)F)c2)n1
A. 60
